test: Novel Modifiers of Survival Motor Neuron (SMN) Protein: Gene Identification via Genome-wide siRNA Screen; settings: HEK293T SMN2-luciferase reporter, siRNA knockdown, 72 h; actives lie on both sides;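 further: luminescence tracks full-length SMN protein made from the SMN2 reporter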
About 1,400 (4.5%) of roughly 31,000 sequences were called active.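 How the source made its calls: active means median seed-adjusted z-score above 1 or below -1; inactive means the rest.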 The entries come from a sample that favours actives as a whole.
Pick one: 1 (active), -1 (inactive)

Solved entries:
>>> df
                 macromolecule_sequence  classification
0  CGAGUGUUCCCGGACAACATT against PODNL1              -1
1   AGCUCGUACUGUUCCAAUATT against MMP19              -1
2   CAAACCGAAUAGAAACUUUTT against PSMC1               1
3  CAGAUUGUCUGAUUCGAUUTT against TRIP11              -1
4  CUAUGGACCAGUCAAAUAATT against NDUFB7              -1
5  GCACCAAACUUAGCUACGATT against DIS3L2              -1

Query sequence follows.
[ask] Please indicate how the test categorized GCAAAGUGCCGAAACAAGATT against ATF3 .
[reply] -1

----------
assay: Novel Modifiers of Survival Motor Neuron (SMN) Protein: Gene Identification via Genome-wide siRNA Screen; conditions: HEK293T SMN2-luciferase reporter, siRNA knockdown, 72 h; actives lie on both sides;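 further: luminescence tracks full-length SMN protein made from the SMN2 reporter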
Screen size: about 31,000 sequences; about 1,400 (4.5%) were called active.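 The calls were made as follows: active = median seed-adjusted z-score above 1 or below -1; inactive = the rest.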 This is one part of a sample in which actives are shown more often than they occur.
Give your call using only these classes: 1 for active, 0 for inactive

Example entries begin here.
>>> print(df.to_string())
                 macromolecule_sequence  classification
0   GGAGAUACAUCACCGAGAATT against ELMO3               0
1   GAACCAUCUCAAUACUAUUTT against DACH2               0
2  GCAUCGUGGUGUCAAGUCATT against ZBTB12               0
3  GGACUUGGAUUAUGAACUATT against COL6A3               0
4  GGUUUGAAGGGUUGACUCATT against STK38L               0
5  GGCUCAAUGUGGACUACAATT against HS3ST1               1
6  CGAGAAUGACUAUCUUCAATT against STK32C               0
7   GCUGAGAUUUUCAAUAAGATT against NR1H4               0
8   CGCUCUCUUCACUUACGAATT against MYO10               0
9   GACUGAUGCUUUGACUGAATT against NPTX2               0

[ask] Query: recorded result category for GGCCUAUGCUAAUCAUUCUTT against FANCA in this test
[reply] 0

[ask] Hi team, can someone confirm the assay call for CCCUGACUCUUGGAUAUGATT against MEOX1 ?
[reply] 0

[ask] Returns: the outcome recorded for CAGUGAUGGUUAAGAACGATT against A2M in this assay.
[reply] 1

[ask] # fetch the recorded call for CACUGGAUUUGAGAGGUUATT against ABHD7 here
[reply] 0

[ask] Could you kindly confirm the outcome this assay logged for CCAGAUUGCUAGUAUCUCATT against TRAK1 ?
[reply] 0

[ask] Assay result, entry AGAUCUCGUGGUUCUGGAATT against RPUSD1 — outcome?
[reply] 0

[ask] Recorded test call requested for CCAUAUUCCUCAUGCAUGUTT against FCRL5
[reply] 0

[ask] What was the test verdict on CAAUCGUCAUAAUGUCUAUTT against A2M ?
[reply] 1

[ask] Test call for this sequence, please: GGAAGAACCAGAGUGUGAATT against C1RL
[reply] 0

[ask] Just curious, what result did GCAAAUGUCAGAGAUUGAATT against SFXN5 get here?
[reply] 0

[ask] Test call for this sequence, please: CAGUUUCAACUUUAUCAGATT against RNF144B
[reply] 0

[ask] Status in this test for GGAUCAACCGCUGCUUGAATT against HELT ?
[reply] 0

[ask] Short answer needed: outcome of this test for GGUAUACAAGGAAAGGUUATT against EIF4E ?
[reply] 0

[ask] For this sequence, state the assay outcome: GCAAAUCUAUUUUCGGAAATT against AGTPBP1
[reply] 0

[ask] Short answer needed: outcome of this test for GGUCGAAGUGUACCCAGUATT against USP11 ?
[reply] 0

[ask] Hi, do you know how GGCCUAGUGUAAUCUCCCATT against ZNF774 came out in this test?
[reply] 0

[ask] Please indicate how the test categorized GAACUGCACCAAAGAAACATT against AKTIP .
[reply] 0

[ask] Hi, sorry to bother you, what did the test record for CAUGGAAGAUCUGACCAUATT against MEOX2 ?
[reply] 1

[ask] Identify the outcome logged in this assay for the sequence shown: CAGAGAACCCAUUACAUCATT against HADH
[reply] 1

[ask] Outcome? GGACUACAAAGGUUCUCGATT against CDH18
[reply] 0

[ask] Would you mind telling me which call this test gave GCUUUCCGAUGAUGAGAGATT against LEO1 ?
[reply] 1

[ask] In this assay, the call recorded for AACCCUUUGUGGAACACCATT against PSMB4 was what?
[reply] 0

[ask] Identify the outcome logged in this assay for the sequence shown: CAACAACUAUGACCCAGGATT against CHRNE
[reply] 0

[ask] Query: recorded result category for GGGACAGGCUGCAAAGAAATT against AARS2 in this test
[reply] 0

[ask] // outcome(item) with item = GCAUUUACUCGCUCUUCAATT against KCNK12
[reply] 1

[ask] Hey, what did the test say about CGGACAUUCGUGCAAAGAATT against PRPF6 ?
[reply] 1

[ask] Test call, this sequence: CCUUAUCCGAGAAUACAUUTT against TUBAL3
[reply] 1

[ask] So what was the verdict on GGCUUGACCUUUUUCGUCUTT against DYNC2H1 in this test?
[reply] 0

[ask] Status in this test for CCAUAGCCCAAAUCAAGGATT against SIK2 ?
[reply] 0

The reported numbers originate from PubChem BioAssay AID1347426.
